Source listed as patent US20240150369A1.

# target.system: CDK4/Cyclin D1 (Homo sapiens (Human))
# Sequence (P11802 whole entry): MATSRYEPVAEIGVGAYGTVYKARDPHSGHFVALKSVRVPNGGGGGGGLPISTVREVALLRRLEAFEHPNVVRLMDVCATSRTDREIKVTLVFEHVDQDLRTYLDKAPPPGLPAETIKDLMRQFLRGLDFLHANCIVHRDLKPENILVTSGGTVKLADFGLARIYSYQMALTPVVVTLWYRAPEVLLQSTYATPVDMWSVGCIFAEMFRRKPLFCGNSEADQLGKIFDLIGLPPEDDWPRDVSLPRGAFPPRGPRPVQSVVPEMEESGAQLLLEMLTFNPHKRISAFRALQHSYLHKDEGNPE
# Sequence (P24385 whole entry partner): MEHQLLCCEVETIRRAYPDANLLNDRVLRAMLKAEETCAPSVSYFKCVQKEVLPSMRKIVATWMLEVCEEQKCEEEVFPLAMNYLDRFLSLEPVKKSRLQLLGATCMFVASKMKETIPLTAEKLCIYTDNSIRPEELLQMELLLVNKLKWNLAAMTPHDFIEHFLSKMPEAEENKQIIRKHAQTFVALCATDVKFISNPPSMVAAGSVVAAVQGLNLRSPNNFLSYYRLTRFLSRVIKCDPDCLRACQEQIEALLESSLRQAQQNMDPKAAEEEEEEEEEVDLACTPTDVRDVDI
# test.protocol: CDK4/Cyclin D1 kinase assay (Nanosyn, Caliper microfluidic)
# condition.context: 12-point dose-response, singlicate, at Km for ATP; ATP 200 μM; 3 hr
value.kind: IC50 (nM)

// worked examples, IC50 included
O=C(c1ccc(Nc2ncc3cc4n(c3n2)C2(CCCCC2)C(=O)NN4)cc1)N1CCNCC1 [Compound 61]: 17
CC1=NNc2cc3cnc(Nc4ccc(S(N)(=O)=O)cc4)nc3n2C12CCCCC2 [Compound 45]: 436
CS(=N)(=O)c1ccc(Nc2ncc3cc4n(c3n2)C2(CCCCC2)C(=O)NN4)cc1 (centres unmarked) [Compound 79]: 172
CN1NC(=O)C2(CCCCC2)n2c1cc1cnc(Nc3ccc(S(N)(=O)=O)cc3)nc12 [Compound 12]: 28
CNC(=O)Nc1ccc(Nc2ncc3cc4n(c3n2)C2(CCCCC2)C(=O)NN4)cc1 [Compound 68]: 595

A. CN1CCN(C(=O)c2ccc(Nc3ncc4cc5n(c4n3)C3(CCCCC3)C(=O)NC5O)cc2)CC1 (centres unmarked) [Compound 53]
B. CN1CCN(C(=O)c2ccc(Nc3ncc4cc5n(c4n3)C3(CCCCC3)C(=O)NN5)cc2)CC1 [Compound 52]
[ask] Decide: A or B , by lowest recorded IC50. Bench note: the answer is the label of the chosen record.
[reply] A

###

# target.system: CDK6/Cyclin D3 (Homo sapiens (Human))
# Sequence (Q00534 whole entry): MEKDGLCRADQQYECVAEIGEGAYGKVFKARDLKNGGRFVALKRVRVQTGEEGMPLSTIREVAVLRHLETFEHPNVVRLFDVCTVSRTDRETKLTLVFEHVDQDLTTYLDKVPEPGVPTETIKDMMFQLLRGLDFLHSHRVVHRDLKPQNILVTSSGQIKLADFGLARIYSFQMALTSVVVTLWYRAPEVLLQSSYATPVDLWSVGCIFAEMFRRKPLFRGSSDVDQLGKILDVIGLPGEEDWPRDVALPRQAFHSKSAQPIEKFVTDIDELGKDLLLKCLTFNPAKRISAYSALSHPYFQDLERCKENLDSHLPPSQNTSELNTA
# Sequence (P30281 whole entry partner): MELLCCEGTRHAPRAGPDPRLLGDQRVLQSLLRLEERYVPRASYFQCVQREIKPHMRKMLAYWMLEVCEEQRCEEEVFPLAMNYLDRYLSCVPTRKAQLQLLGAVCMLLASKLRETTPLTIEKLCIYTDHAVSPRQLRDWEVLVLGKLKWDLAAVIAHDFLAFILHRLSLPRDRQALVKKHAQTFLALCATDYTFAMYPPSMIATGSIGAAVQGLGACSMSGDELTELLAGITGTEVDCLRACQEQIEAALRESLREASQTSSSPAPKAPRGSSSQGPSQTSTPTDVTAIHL
# test.protocol: CDK6/Cyclin D3 kinase assay (Nanosyn, Caliper microfluidic)
# condition.context: 12-point dose-response, singlicate, at Km for ATP; ATP 300 μM; 3 hr
pIC50: −log10 of the molar value.
value.kind: pIC50

Examples from the recorded data:
O=C(c1ccc(Nc2ncc3cc4n(c3n2)C2(CCCCC2)C(=O)NN4)cc1)N1CCNCC1: 7.40
C[C@@H]1NC(=O)C2(CCCCC2)n2c1cc1cnc(Nc3ccc(S(N)(=O)=O)cc3)nc12: 6.68
NS(=O)(=O)c1ccc(Nc2ncc3cc4n(c3n2)C2(CCCCC2)C(=O)NN4)cc1: 6.46
CN1CCN(S(=O)(=O)c2ccc(Nc3ncc4cc5n(c4n3)C3(CCCCC3)C(=O)NN5)cc2)CC1: 6.32
NC(=O)c1ccc(Nc2ncc3cc4n(c3n2)C2(CCCCC2)C(=O)NN4)cc1: 6.24
NS(=O)(=O)c1ccc(Nc2ncc3cc4n(c3n2)C2(C=NN4)CCCCC2)cc1: 6.77

a. O=C1NCC2(CCCCC2)n2c1cc1cnc(Nc3ccc(C(=O)N4CCNCC4)cc3)nc12
b. CC1C(=O)Nc2cc3cnc(Nc4ccc(C(=O)N5CCN(C)CC5)cc4)nc3n2C12CCCCC2 (centres unmarked)
[ask] Of the pair a and b , name the member with the lesser recorded pIC50. Provide the label of your selected option as the answer.
[reply] b
(b: 7.82, a: 9.40)

###

# target.system: CDK1/Cyclin B1 (Homo sapiens (Human), UniProt P06493)
# Sequence (P06493 whole entry): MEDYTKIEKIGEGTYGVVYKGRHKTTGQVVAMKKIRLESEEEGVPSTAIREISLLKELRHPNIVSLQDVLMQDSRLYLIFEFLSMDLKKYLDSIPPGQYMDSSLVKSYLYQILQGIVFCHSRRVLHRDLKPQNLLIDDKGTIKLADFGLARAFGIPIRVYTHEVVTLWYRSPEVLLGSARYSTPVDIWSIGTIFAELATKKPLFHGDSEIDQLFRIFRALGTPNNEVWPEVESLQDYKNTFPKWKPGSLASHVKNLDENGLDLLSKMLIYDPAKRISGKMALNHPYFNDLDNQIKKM
# Sequence (P14635 whole entry partner): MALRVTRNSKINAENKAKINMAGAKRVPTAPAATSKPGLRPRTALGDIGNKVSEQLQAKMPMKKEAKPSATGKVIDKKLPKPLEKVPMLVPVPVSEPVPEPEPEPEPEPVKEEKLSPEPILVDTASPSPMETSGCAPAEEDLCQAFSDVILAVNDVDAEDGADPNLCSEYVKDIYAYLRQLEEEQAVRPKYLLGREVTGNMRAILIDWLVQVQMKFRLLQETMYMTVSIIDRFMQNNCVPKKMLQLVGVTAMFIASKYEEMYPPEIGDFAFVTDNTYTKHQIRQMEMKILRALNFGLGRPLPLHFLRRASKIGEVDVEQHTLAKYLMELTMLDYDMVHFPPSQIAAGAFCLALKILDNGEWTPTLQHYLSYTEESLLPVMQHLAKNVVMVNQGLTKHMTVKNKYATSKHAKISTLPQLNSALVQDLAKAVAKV
# test.protocol: CDK1/Cyclin B1 kinase assay (Nanosyn, Caliper microfluidic)
# condition.context: 12-point dose-response, singlicate, at Km for ATP; ATP 40 μM; 3 hr
value.kind: IC50 (nM)

The cases that follow already have their IC50 on record.
CC1C(=O)Nc2cc3cnc(Nc4ccc(S(=O)(=O)N5CCN(C)CC5)cc4)nc3n2C12CCCCC2 (stereo not shown) [Compound 59]: 42
CC1C(=O)Nc2cc3cnc(Nc4ccc(C(=O)N5CCN(C)CC5)cc4)nc3n2C12CCCCC2 (stereo not shown) [Compound 71]: 15
NS(=O)(=O)c1ccc(Nc2ncc3cc4n(c3n2)C2(CCCCC2)C(=O)NN4)cc1 [Compound 3]: 33

I. O=C1NCC2(CCCCC2)n2c1cc1cnc(Nc3ccc(C(=O)N4CCNCC4)cc3)nc12 [Compound 55]
II. CN1CCN(C(=O)c2ccc(Nc3ncc4cc5n(c4n3)C3(CCCCC3)C(=O)NC5O)cc2)CC1 (stereo not shown) [Compound 53]
[ask] Compare the recorded IC50 of I and II ; state which is larger. Which one? Tell me its label.
[reply] II
(II: 27 nM, I: 5 nM)

P. O=C(c1ccc(Nc2ncc3cc4n(c3n2)C2(CCCCC2)C(=O)NN4)cc1)N1CCNCC1 [Compound 61]
Q. CN1CCN(S(=O)(=O)c2ccc(Nc3ncc4cc5n(c4n3)C3(CCCCC3)C(=O)NC5O)cc2)CC1 (stereo not shown) [Compound 50]
R. CN1N=CC2(CCCCC2)n2c1cc1cnc(Nc3ccc(S(N)(=O)=O)cc3)nc12 [Compound 5]
[ask] Thanks in advance: please rank these 3 entries by IC50, highest to lowest. Answer by writing out the labels in the requested order.
[reply] P, Q, R
(P: 133 nM, Q: 78 nM, R: 11 nM)
